system: IGROV1 complex spheroids (HUVEC, MSC), viability % test/control; assay: Anticancer human tumor IGROV1 cell line growth inhibition [GQUAD]; conditions: second compound 1 µM; first compound 10 µM; active = viability on the fitted dose curve at most 10% of control; inactive = the rest;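 note: spheroids exposed to compounds for 7 days before readout; 100% = DMSO vehicle control viability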
Returns: one label drawn from 1.0 (active), 0.0 (inactive)

{"columns": ["compound", "group"],
 "data": [
  ["C#Cc1c(F)ccc2cc(O)cc(-c3ncc4c(N5CC6CCC(C5)N6)nc(OCC56CCCN5CC(F)C6)nc4c3F)c12 (stereo unspecified) + Cc1[nH]c2ccc(F)cc2c1-c1nc2c3cccnc3c3ncccc3c2[nH]1", 1.0],
  ["CC(=O)O[C@H]1C(=O)[C@@]2(C)[C@H]([C@H](OC(=O)c3ccccc3)[C@]3(O)C[C@H](OC(=O)[C@H](O)[C@@H](NC(=O)c4ccccc4)c4ccccc4)C(C)=C1C3(C)C)[C@]1(OC(C)=O)CO[C@@H]1C[C@@H]2O + Cc1cnc(CNC(=O)c2c(=O)c3ccc(N4CCCN(C)CC4)nc3n3c2sc2ccccc23)cn1", 1.0],
  ["COc1ncnc(C2CC2)c1-c1ncc2cnn(Cc3ccc(-c4nc(C(F)(F)F)cn4C(C)C)cc3)c2n1 + CN(C)c1ccc(Nc2c3ccc(NC(=O)CCN4CCCC4)cc3nc3cc(NC(=O)CCN4CCCC4)ccc23)cc1", 0.0],
  ["Cc1cccc(N(C)C(=O)C2C(O)CCN2c2nc(C)cc(C(F)(F)F)c2C#N)c1 (stereo unspecified) + Cc1cnc(CNC(=O)c2c(=O)c3ccc(N4CCCN(C)CC4)nc3n3c2sc2ccccc23)cn1", 0.0],
  ["Nc1ccn(C2OC(CO)C(O)C2(F)F)c(=O)n1 (stereo unspecified) + Cc1cnc(CNC(=O)c2c(=O)c3ccc(N4CCCN(C)CC4)nc3n3c2sc2ccccc23)cn1", 1.0]
]}

Query :: Outcome? CC1COCCN1c1cc(-c2ccnn2C)c2ccnc(-c3ccn[nH]3)c2n1 (stereo unspecified) + Cc1cnc(CNC(=O)c2c(=O)c3ccc(N4CCCN(C)CC4)nc3n3c2sc2ccccc23)cn1
Result :: 1.0

----------
tested on: IGROV1 complex spheroids (HUVEC, MSC), viability % test/control; assay: Anticancer human tumor IGROV1 cell line growth inhibition [GQUAD]; details: second compound 1 µM; first compound 10 µM; active = viability on the fitted dose curve at most 10% of control; inactive = the rest;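 note: spheroids exposed to compounds for 7 days before readout; 100% = DMSO vehicle control viability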
Returns: one label drawn from 1 (yes) for active, 0 (no) for inactive

Please review the following examples before continuing.
{"columns": ["compound", "group"],
 "data": [
  ["Nc1ccn(C2OC(CO)C(O)C2(F)F)c(=O)n1 (stereo not given) + CN(C)c1ccc(Nc2c3ccc(NC(=O)CCN4CCCC4)cc3nc3cc(NC(=O)CCN4CCCC4)ccc23)cc1", "1 (yes)"],
  ["Nc1ccn(C2OC(CO)C(O)C2(F)F)c(=O)n1 (stereo not given) + Cc1[nH]c2ccc(F)cc2c1-c1nc2c3cccnc3c3ncccc3c2[nH]1", "1 (yes)"],
  ["CC1COCCN1c1cc(C2(S(C)(=N)=O)CC2)nc(-c2ccnc3[nH]ccc23)n1 (stereo not given) + CN(C)c1ccc(Nc2c3ccc(NC(=O)CCN4CCCC4)cc3nc3cc(NC(=O)CCN4CCCC4)ccc23)cc1", "1 (yes)"],
  ["O=c1[nH]cc(F)c(=O)[nH]1 + Cc1[nH]c2ccc(F)cc2c1-c1nc2c3cccnc3c3ncccc3c2[nH]1", "1 (yes)"]
]}

Turning to the following compound.
Query :: Outcome? Cc1cccc(N(C)C(=O)C2C(O)CCN2c2nc(C)cc(C(F)(F)F)c2C#N)c1 (stereo not given) + CN(C)c1ccc(Nc2c3ccc(NC(=O)CCN4CCCC4)cc3nc3cc(NC(=O)CCN4CCCC4)ccc23)cc1
Result :: 0 (no)

----------
test system: IGROV1 complex spheroids (HUVEC, MSC), viability % test/control; assay: Anticancer human tumor IGROV1 cell line growth inhibition [GQUAD]; conditions: second compound 0.316 µM; first compound 3.16 µM; hits give low values;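 note: spheroids exposed to compounds for 7 days before readout; 100% = DMSO vehicle control viability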
measurement_type: viability, T/C

{"columns": ["compound", "measurement_type", "reported_result"],
 "data": [
  ["CC1COCCN1c1cc(-c2ccnn2C)c2ccnc(-c3ccn[nH]3)c2n1 (stereo unspecified) + Cc1[nH]c2ccc(F)cc2c1-c1nc2c3cccnc3c3ncccc3c2[nH]1", "viability, T/C", "4.33%"],
  ["CCCS(=O)(=O)Nc1ccc(F)c(C(=O)c2c[nH]c3ncc(-c4ccc(Cl)cc4)cc23)c1F + CN(C)c1ccc(Nc2c3ccc(NC(=O)CCN4CCCC4)cc3nc3cc(NC(=O)CCN4CCCC4)ccc23)cc1", "viability, T/C", "82.3%"],
  ["C=CCn1c(=O)c2cnc(Nc3ccc(N4CCN(C)CC4)cc3)nc2n1-c1cccc(C(C)(C)O)n1 + Cc1cnc(CNC(=O)c2c(=O)c3ccc(N4CCCN(C)CC4)nc3n3c2sc2ccccc23)cn1", "viability, T/C", "2.95%"],
  ["CC(=O)O[C@H]1C(=O)[C@@]2(C)[C@H]([C@H](OC(=O)c3ccccc3)[C@]3(O)C[C@H](OC(=O)[C@H](O)[C@@H](NC(=O)c4ccccc4)c4ccccc4)C(C)=C1C3(C)C)[C@]1(OC(C)=O)CO[C@@H]1C[C@@H]2O + Cc1cnc(CNC(=O)c2c(=O)c3ccc(N4CCCN(C)CC4)nc3n3c2sc2ccccc23)cn1", "viability, T/C", "5.37%"],
  ["CC(=O)O[C@H]1C(=O)[C@@]2(C)[C@H]([C@H](OC(=O)c3ccccc3)[C@]3(O)C[C@H](OC(=O)[C@H](O)[C@@H](NC(=O)c4ccccc4)c4ccccc4)C(C)=C1C3(C)C)[C@]1(OC(C)=O)CO[C@@H]1C[C@@H]2O + Cc1[nH]c2ccc(F)cc2c1-c1nc2c3cccnc3c3ncccc3c2[nH]1", "viability, T/C", "2.72%"],
  ["CC(C)(O)C1CCC(Nc2ccc3ncc(-c4cccc(C(F)(F)F)c4)n3n2)CC1 (stereo unspecified) + Cc1[nH]c2ccc(F)cc2c1-c1nc2c3cccnc3c3ncccc3c2[nH]1", "viability, T/C", "6.69%"]
]}

// for each compound in input: emit viability, T/C
1. COc1ccc([C@@H](O)c2cc(-c3ncnc4cc(N5CCOCC5)ccc34)c(F)cc2Cl)nn1 + Cc1[nH]c2ccc(F)cc2c1-c1nc2c3cccnc3c3ncccc3c2[nH]1
2. C=CC(=O)N1CCN(c2nc(=O)n(-c3c(C)ccnc3C(C)C)c3nc(-c4c(O)cccc4F)c(F)cc23)C(C)C1 (stereo unspecified) + Cc1[nH]c2ccc(F)cc2c1-c1nc2c3cccnc3c3ncccc3c2[nH]1
3. CC1COCCN1c1cc(C2(S(C)(=N)=O)CC2)nc(-c2ccnc3[nH]ccc23)n1 (stereo unspecified) + CN(C)c1ccc(Nc2c3ccc(NC(=O)CCN4CCCC4)cc3nc3cc(NC(=O)CCN4CCCC4)ccc23)cc1

Result ::
1: 12.3%; 2: 80%; 3: 13.7%

// for each compound in input: emit viability, T/C
1. CC1COCCN1c1cc(C2(O)CC3CCC(C2)O3)c2cnn(-c3ccn[nH]3)c2n1 (stereo unspecified) + CN(C)c1ccc(Nc2c3ccc(NC(=O)CCN4CCCC4)cc3nc3cc(NC(=O)CCN4CCCC4)ccc23)cc1
2. CC(C)(O)C1CCC(Nc2ccc3ncc(-c4cccc(C(F)(F)F)c4)n3n2)CC1 (stereo unspecified) + CN(C)c1ccc(Nc2c3ccc(NC(=O)CCN4CCCC4)cc3nc3cc(NC(=O)CCN4CCCC4)ccc23)cc1
3. CCCS(=O)(=O)Nc1ccc(F)c(C(=O)c2c[nH]c3ncc(-c4ccc(Cl)cc4)cc23)c1F + Cc1[nH]c2ccc(F)cc2c1-c1nc2c3cccnc3c3ncccc3c2[nH]1
4. Cc1cccc(N(C)C(=O)C2C(O)CCN2c2nc(C)cc(C(F)(F)F)c2C#N)c1 (stereo unspecified) + CN(C)c1ccc(Nc2c3ccc(NC(=O)CCN4CCCC4)cc3nc3cc(NC(=O)CCN4CCCC4)ccc23)cc1
5. COc1ncnc(C2CC2)c1-c1ncc2cnn(Cc3ccc(-c4nc(C(F)(F)F)cn4C(C)C)cc3)c2n1 + Cc1[nH]c2ccc(F)cc2c1-c1nc2c3cccnc3c3ncccc3c2[nH]1
6. C#Cc1c(F)ccc2cc(O)cc(-c3ncc4c(N5CC6CCC(C5)N6)nc(OCC56CCCN5CC(F)C6)nc4c3F)c12 (stereo unspecified) + Cc1cnc(CNC(=O)c2c(=O)c3ccc(N4CCCN(C)CC4)nc3n3c2sc2ccccc23)cn1

Result ::
1: 4.65%; 2: 30.1%; 3: 32.3%; 4: 88.9%; 5: 72.8%; 6: 18.3%

Query :: Return viability, T/C (reported value) for this compound: O=C(NO)c1cnc(N2CCN(S(=O)(=O)c3ccc4ccccc4c3)CC2)nc1 + Cc1[nH]c2ccc(F)cc2c1-c1nc2c3cccnc3c3ncccc3c2[nH]1
Result :: 0.04%
